Values compiled from BindingDB's records for doi:10.7270/Q2TX3CTT.

- tested-on: Glycogen synthase kinase-3 beta (Homo sapiens)
- procedure-summary: concentration-response blocking of human GSK3B – biochemical, luminescence, cell-free homogeneous, retest, dose response (AID 434954)
pEC50: −log10 of the molar value.
property: pEC50

molecule	value
CCN(c1ccccc1)S(=O)(=O)c1cc(NC(=O)Nc2ccccc2C#N)ccc1Cl [MLS000395038]	< 3.52
O=C(C[n+]1ccc(C=Cc2ccccc2)cc1)c1ccc2c(c1)OCCO2	3.90
COc1cc([CH-]N=[O+]C)ccc1Oc1ccc([N+](=O)[O-])cc1[N+](=O)[O-] [MLS000699890]	< 3.52
Cc1ccc(-c2nnc3ccc(SC(C)C(=O)O)nn23)cc1 (centres undefined)	4.47
COc1ccc2c(c1)-c1c(sn(-c3ccccc3)c1=S)C(C)(C)N2	< 3.52

// lookup pEC50 for c1ccc(-c2nc(-c3ccco3)n3ccccc23)cc1 [MLS000392030]
< 3.52

Dear colleague, I am looking for the recorded pEC50 of the following molecule: O=C(O)CCN1C(=O)/C(=C\c2ccc(-c3nc4ccccc4s3)o2)SC1=S
< 3.52

Entry O=c1cc(-c2ccccc2Cl)oc2cc(O)cc(O)c12 has what pEC50?
5.78

Name the recorded pEC50 for Cc1ccc(OCC(=O)N/N=C/c2ccc(O)c([N+](=O)[O-])c2)c([N+](=O)[O-])c1 [SMR000312577] .
< 3.52

* * *

# Lookup of reported EC50 keyed by entry
- tested-on: Glycogen synthase kinase-3 beta (Homo sapiens, UniProt P49841)
- Sequence (P49841 whole entry): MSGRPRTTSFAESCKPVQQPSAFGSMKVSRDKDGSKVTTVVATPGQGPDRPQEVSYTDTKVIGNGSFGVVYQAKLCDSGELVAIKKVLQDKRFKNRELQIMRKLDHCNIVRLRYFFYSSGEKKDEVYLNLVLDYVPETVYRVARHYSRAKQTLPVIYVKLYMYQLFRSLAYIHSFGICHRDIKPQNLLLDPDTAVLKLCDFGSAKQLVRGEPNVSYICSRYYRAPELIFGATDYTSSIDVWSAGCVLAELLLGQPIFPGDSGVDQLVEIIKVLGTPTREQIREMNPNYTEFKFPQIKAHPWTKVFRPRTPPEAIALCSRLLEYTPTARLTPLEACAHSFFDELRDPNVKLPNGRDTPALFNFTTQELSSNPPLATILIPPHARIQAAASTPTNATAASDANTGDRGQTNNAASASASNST
- procedure-summary: concentration-response blocking of human GSK3B – biochemical, luminescence, cell-free homogeneous, retest, dose response (AID 434954)

compound	tested-on	value
CCN(CC)Cc1c(C(=O)NN=Cc2cccc3ccccc23)nnn1-c1nonc1N	Glycogen synthase kinase-3 beta (Homo sapiens, UniProt P49841)	> 300 µM
CCc1nc2oc3cc(OC)ccc3c(=O)c2c(=O)n1Cc1ccccc1	Glycogen synthase kinase-3 beta (Homo sapiens, UniProt P49841)	4.2 µM
COc1ccc2nc(C)cc(N3CCOCC3)c2c1	Glycogen synthase kinase-3 beta (Homo sapiens, UniProt P49841)	> 300 µM
CC1(C)CC(=O)C=C(Nc2ccc(F)cc2F)C1	Glycogen synthase kinase-3 beta (Homo sapiens, UniProt P49841)	> 300 µM
CC(C)(C)C(=O)COC(=O)c1ccc(O)cc1	Glycogen synthase kinase-3 beta (Homo sapiens, UniProt P49841)	> 300 µM
CCCc1nc2c([nH]1)c(=O)n(C)c(=O)n2C	Glycogen synthase kinase-3 beta (Homo sapiens, UniProt P49841)	> 300 µM
O=C(Nc1cccc2c1C(=O)NC2=O)c1cccc(-n2c(O)ccc2O)c1	Glycogen synthase kinase-3 beta (Homo sapiens, UniProt P49841)	> 300 µM
COc1cccc2cc(C(=O)NCc3ccc(C)cc3)c(=O)oc12	Glycogen synthase kinase-3 beta (Homo sapiens, UniProt P49841)	> 300 µM
Nc1nonc1-n1nnc(C(=O)NN=Cc2ccccn2)c1-c1ccccc1	Glycogen synthase kinase-3 beta (Homo sapiens, UniProt P49841)	65.6 µM
Cc1nc2nc(=O)c3c(n2[nH]1)NC1=C(C(=O)CC(C)(C)C1)C3c1ccccc1 (stereo unspecified) [MLS000084334]	Glycogen synthase kinase-3 beta (Homo sapiens, UniProt P49841)	> 300 µM

Would you kindly look at the next entry?
Form field: reported EC50 of COc1ccc2c(c1)=C(NN1C(=O)c3ccccc3C1=O)C(=O)N=2
> 300 µM

* * *

- tested-on: Glycogen synthase kinase-3 beta (Homo sapiens, UniProt P49841)
- procedure-summary: concentration-response blocking of human GSK3B – biochemical, luminescence, cell-free homogeneous, retest, dose response (AID 434954)
Quick reference for EC50 among some molecules
Note: unit µM is implicit; provide only the numeric part.

The cases that follow already have their EC50 on record.
O=c1cc(-c2ccccc2Cl)oc2c([N+](=O)[O-])c(O)cc(O)c12 2.58
COc1cc(/C=C2/C(=O)NN(c3cccc(Cl)c3)C2=O)cc(Br)c1O 42.6
CC1=C(C#N)C(=O)NC(=O)C1=NNc1ccc(Cl)c(C(=O)O)c1 39.8

I am curious: what EC50 value has been reported for CN(C)Cc1c(O)ccc2c3c(c(=O)oc12)CCCCC3 ?
78.8

* * *

- tested-on: Glycogen synthase kinase-3 beta (Homo sapiens, UniProt P49841)
- procedure-summary: concentration-response blocking of human GSK3B – biochemical, luminescence, cell-free homogeneous, retest, dose response (AID 434954)
property: EC50

Below are worked cases with known answers.
molecule	EC50
COC(=O)c1cc(S(=O)(=O)N2CCCC(C)C2)c[nH]1 (stereo unspecified)	> 300 µM
Cc1cc(OCC(F)(F)C(F)(F)C(F)(F)C(F)F)nc(N)n1 [SMR000122155]	> 300 µM
COc1ccc(-c2nn(-c3ccccc3)cc2N)cc1	> 300 µM
COc1ccc(CC(=O)Nc2ncc([N+](=O)[O-])s2)cc1OC [SMR000288398]	8.4 µM
C=CCNC(=O)c1ccc(OC)cc1 [4-methoxy-N-prop-2-enylbenzamide]	> 300 µM
O=C(CN1C(=O)c2ccccc2C1=O)Nc1ccccc1F	> 300 µM
CS(=O)(=O)c1ccccc1-c1nnc(NC(=O)c2ccc3ncsc3c2)o1	> 300 µM
CCCN1CCN(CCCNC(=O)Cn2nc(C)n3c(cc4cc(OC)ccc43)c2=O)CC1 [MLS001110985]	> 300 µM

Please give the measured EC50 for this molecule: CC(C)CCSc1nnc(N)s1 [MLS000861787]
> 300 µM

Bench note: what EC50 did CCn1c(SCC(=O)Nc2ccc(Br)cn2)nnc1C1CC1 [SMR000671057] show?
75 µM

Would you kindly share the measured EC50 for CC(C)N(Cc1nnc(-c2ccc(Cl)cc2)o1)C(=O)C1=COCCO1 ?
> 300 µM

Given the entry COc1ccc(-c2cc(C(=O)N3CCN(C(=O)c4ccco4)CC3)[nH]n2)cc1 [SMR000623613] , report its measured EC50.
> 300 µM

Given the entry CCCCC(=O)Nc1nc2c(OC)cc([N+](=O)[O-])cc2s1 [SMR000363192] , report its measured EC50.
> 300 µM

Entry COc1ccc(CNC(=O)CN(Cc2ccccc2)C(=O)CCC(=O)Nc2nccs2)cc1 has what EC50?
11.1 µM

Reported EC50 for CCOC(=O)c1cnc2ccc(Cl)cc2c1Nc1ccc(S(=O)(=O)Nc2ncccn2)cc1 : what is it?
108 µM

I am curious: what EC50 value has been reported for COc1ccc(C(=O)NC(=S)NC2CCCCC2)cc1 ?
> 300 µM

Name the reported EC50 value associated with the molecule Clc1ccccc1CSc1nnc(-c2ccncc2)o1
4.85 µM

Any idea what its EC50 is? The molecule is O=[N+]([O-])c1c(-c2cn[nH]c2)n[nH]c1-c1cn[nH]c1 [SMR000289595]
13.6 µM

Entry O=C(O)Cn1cc(CN=Nc2ccc([N+](=O)[O-])cn2)c2ccccc21 [SMR000540193] has what EC50?
8.24 µM

Recorded EC50 for COc1cccc(CNS(=O)(=O)c2cc(CN3C(=O)c4cccnc4C3=O)ccc2OC)c1 [SMR000630004] , please?
> 300 µM

State the recorded EC50 for this entry: COc1ccc(Nc2nc(N)nc(CSc3nncn3C)n2)cc1
41.3 µM

* * *

- tested-on: Glycogen synthase kinase-3 beta (Homo sapiens, UniProt P49841)
- procedure-summary: concentration-response blocking of human GSK3B – biochemical, luminescence, cell-free homogeneous, retest, dose response (AID 434954)
property: EC50

# EC50 lookup, item O=C1C2C3C=CC(C3)C2C(=O)N1CCCCCCN1C(=O)C2C3C=CC(C3)C2C1=O (centres undefined) [SMR000283963]
> 300 µM

For the molecule shown here, O=C(Nc1ccnn1C1CCN(Cc2cccc(OCCO)c2)CC1)C1CCCC1 , give the reported EC50.
> 300 µM

For CCOC(=O)c1cnc2ccc(OCC)cc2c1N1CCN(c2ccccc2)CC1 [SMR000130091] , what is its reported EC50?
29 µM

What value of EC50 has been recorded for this entry: CS(=O)(=O)c1nncn1-c1ccccc1 [MLS000062086]
> 300 µM

Please give the measured EC50 for this molecule: Cc1nn(-c2ccccn2)c2c1C(c1ccncc1)C1C(=O)CC(C)(C)CC1=N2 (centres undefined) [SMR000152057]
> 300 µM

Consider the molecule Fc1ccccc1Cn1c2[n+](c3ccc(C(F)(F)F)cc31)CCCCC2 and give its measured EC50.
> 300 µM

Data request, read-out EC50, for CN1CCc2c(sc3c2c(=O)n(-c2ccccc2)c2nnc(SCc4ccc(Cl)cc4)n32)C1 [SMR000045323]
> 300 µM

Look at this molecule and give its reported EC50. CCN1CCN(CCCNC(=O)c2ccc3c(c2)NC(=O)/C(=C\c2cccc(C)c2)S3)CC1
16.1 µM
